# test system: PCDHA4
# assay explanation: pooled miR-30 sensor sort-seq; sequence = guide strand; note: reference of the scale not given here
# run conditions: shRNA
Below, each of the sequences is paired with its reported sensor-assay potency score (higher = more potent) value.
Lab note: record just the number, no unit beside it.

Consider the worked cases shown below.
residue sequence	test system	endpoint value
TTCCTCAGTTGTCTGCAGCTGA	PCDHA4	0.537
TTTTCTAGTAATCTCACCTTAT	PCDHA4	-0.448
TTGTGTTGCTGGGAACACCGGC	PCDHA4	-0.469
TCTCTGTCTAAAGATTTCCGTA	PCDHA4	-0.816
TATCGTTGTTGTCTTCTACTTC	PCDHA4	0.366

// below: sensor-assay potency score (higher = more potent) requested for another sequence
Recorded sensor-assay potency score (higher = more potent) of `TTAAGTTTAATTACCAATGTTC` , please.
-0.347

====

Overview of reported sensor-assay potency score (higher = more potent) across a group of sequences:
# test system: CDH2
# assay explanation: pooled miR-30 sensor sort-seq; sequence = guide strand
# run conditions: shRNA
// no unit, no text: just the number

Example results:
residue sequence	endpoint value
TCACATTTGGTGATTCTCGGTC	0.353
TTTGTTTCAAAGTCGATTGGTT	0.586
TTGATGACAATGTCAATGGGGT	0.314
TATTTCTTCAACTTCTGCTGAC	0.204

Continue with the sequence presented below.
Look at this sequence and give its reported sensor-assay potency score (higher = more potent). `TTGACCACGGTGACTAACCCGT`
-0.441

====

# test system: TXLNG
# assay explanation: pooled miR-30 sensor sort-seq; sequence = guide strand
# run conditions: shRNA
measurement label: sensor-assay potency score (higher = more potent)
Answer using only a numeral; do not append any unit.

Some sequences with known sensor-assay potency score (higher = more potent) results, for comparison:
residue sequence	test system	endpoint value
TAACGTCTTATTGTGACGCTGA	TXLNG	0.553
TTCTTCTTCCTCTCGTGCCTGC	TXLNG	-0.0706
TTAAACTATTCAAAACTGCTAA	TXLNG	-0.454
TTCCTTACGTTTGAACACCTTA	TXLNG	-0.525
TTGCACTCTGAATCTTGCTGAC	TXLNG	0.000943

// lookup sensor-assay potency score (higher = more potent) for `TTTTAGTTGTACTTCCTGCTGT`
0.554

Could you share which sensor-assay potency score (higher = more potent) value was measured for `TTCGATGAGCTTCTTTAGCTTC` ?
-0.258

====

# test system: TAS1R2
# assay explanation: pooled miR-30 sensor sort-seq; sequence = guide strand
# run conditions: shRNA
measurement label: sensor-assay potency score (higher = more potent)
Answer using only a numeral; do not append any unit.

residue sequence	endpoint value
ATAGGTGTCGCTGCTCACCAGC	-0.83
TAGCACACATCCACGATCTCAT	0.125
TTCATCTTCAGTGTGGTTGAGG	-0.161
TTGTTGATCTCCTCCACCGCAA	-0.437
TAGGCAGACATGAAGGTGCAGA	-0.389
TTCATATTCATCTTCAGTGTGG	0.0168
TAGGACCACTCGTTATTCGGGC	-0.986

Let us move to another entry and its sensor-assay potency score (higher = more potent).
Recorded sensor-assay potency score (higher = more potent) of `TTGCAGGTATAGCTCTGGCTGG` , please.
-1.05
